Data provenance: paper PMC10308901

// Kd lookup, one value per entry
Biological target: T1, Mycobacterium marinum GroEL2, recombinant, biotinylated AVI-tagged form (Mycobacterium marinum, UniProt B2HQP9 1-541)
T1 construct: also called Mmr GroEL2; biotinylated GroEL protein
Assay: BLI
Conditions: both partners purified

Here's what some known entries look like.
[[record]]
binder = "GroEL2 sybody number 32 (VHH, not shown: Myc, C-terminal, kept; His6, C-terminal, kept) VHH: QVQLVESGGGLVQAGGSLRLSCAASGFPVVSQFMEWHRQAPGKEREWVAAIDSTGYSTFYADSVKGRFTISRDNAKNTVYLQMNSLKPEDTAVYYCNVKDAGEGQEQYDYWGQGTQVTVSA"
observed_value = "~153 nM"

[[record]]
binder = "GroEL2 sybody number 33 (VHH, not shown: Myc, C-terminal, kept; His6, C-terminal, kept) VHH: QVQLVESGGGLVQAGGSLRLSCAASGFPVYQHWMYWYRQAPGKEREWVAAIMSQGAGTWYADSVRGRFTISRDNAKNTVYLQMNSLKPEDTAVYYCNVKDLGKAEYNYDYWGQGTQVTVSA"
observed_value = "~244 nM"

[[record]]
binder = "GroEL2 sybody number 22 (VHH, not shown: Myc, C-terminal, kept; His6, C-terminal, kept) VHH: QVQLVESGGGLVQAGGSLRLSCAASGFPVYHSWMYWYRQAPGKEREWVAAIMSDGHGTWYADSVKGRFTISRDNAKNTVYLQMNSLKPEDTAVYYCNVKDTGSSTTIYDYWGQGTQVTVSA"
observed_value = "~507 nM"

[[record]]
binder = "GroEL2 sybody number 8 (VHH, not shown: Myc, C-terminal, kept; His6, C-terminal, kept) VHH: QVQLVESGGGLVQAGGSLRLSCAASGFPVYMSWMYWYRQAPGKEREWVAAIMSEGAGTWYADSVKGRFTISRDNAKNTVYLQMNSLKPEDTAVYYCNVKDTGSFHAQYDYWGQGTQVTVSA"
observed_value = "~13 nM"

[[record]]
binder = "GroEL2 sybody number 3 (VHH, also called GroEL2_SB3; not shown: Myc, C-terminal, kept; His6, C-terminal, kept) VHH: QVQLVESGGGLVQAGGSLRLSCAASGFPVAYWEMVWYRQAPGKEREWVAAIRSTGWKTVYADSVKGRFTISRDNAKNTVYLQMNSLKPEDTAVYYCTAVYVGVHYKGQGTQVTVSA"
observed_value = "~18 nM"


Param item = GroEL2 sybody number 10 (VHH, not shown: Myc, C-terminal, kept; His6, C-terminal, kept) VHH: QVQLVESGGGLVQAGGSLRLSCAASGFPVKHWYMHWYRQAPGKEREWVAAIQSTGSYTAYADSVKGRFTISRDNAKNTVYLQMNSLKPEDTAVYYCNVKEYGFYHASYDYWGQGTQVTVSA ; retrieve measured Kd.
~193 nM

Param item = GroEL2 sybody number 11 (VHH, not shown: Myc, C-terminal, kept; His6, C-terminal, kept) VHH: QVQLVESGGGLVQAGGSLRLSCAASGFPVDSAYMWWYRQAPGKEREWVAAIESNGEYTFYADSVKGRFTISRDNAKNTVYLQMNSLKPEDTAVYYCNVKDTGAHHSYYDYWGQGTQVTVSA ; retrieve measured Kd.
~271 nM

Param item = GroEL2 sybody number 16 (VHH, not shown: Myc, C-terminal, kept; His6, C-terminal, kept) VHH: QVQLVESGGGLVQAGGSLRLSCAASGFPVSSSTMTWYRQAPGKEREWVAAIESWGAYTWYADSVKGRFTISRDNAKNTVYLQMNSLKPEDTAVYYCNVKDYDGVADVIYDYWGQGTQVTVSA ; retrieve measured Kd.
~15 nM

Param item = GroEL2 sybody number 9 (VHH, also called GroEL2_SB9; not shown: Myc, C-terminal, kept; His6, C-terminal, kept) VHH: QVQLVESGGGLVQAGGSLRLSCAASGFPVYQSWMYWYRQAPGKEREWVAAIMSDGSGTWYADSVKGRFTISRDNAKNTVYLQMNSLKPEDTAVYYCNVKDFGHSRSRYDYWGQGTQVTVSA ; retrieve measured Kd.
~277 nM

Param item = GroEL2 sybody number 31 (VHH, not shown: Myc, C-terminal, kept; His6, C-terminal, kept) VHH: QVQLVESGGGLVQAGGSLRLSCAASGFPVWMEWMYWYRQAPGKEREWVAAIMSEGDGTWYADSVKGRFTISRDNAKNTVYLQMNSLKPEDTAVYYCNVKDFGYNNNYYDYWGQGTQVTVSA ; retrieve measured Kd.
~66 nM

Param item = GroEL2 sybody number 27 (VHH, not shown: Myc, C-terminal, kept; His6, C-terminal, kept) VHH: QVQLVESGGGLVQAGGSLRLSCAASGFPVWKAYMWWYRQAPGKEREWVAAIESNGAYTFYADSVKGRFTISRDNAKNTVYLQMNSLKPEDTAVYYCNVKDTGSDSENYDYWGQGTQVTVSA ; retrieve measured Kd.
~101 nM

Param item = GroEL2 sybody number 19 (VHH, not shown: Myc, C-terminal, kept; His6, C-terminal, kept) VHH: QVQLVESGGGLVQAGGSLRLSCAASGFPVEWLEMAWYRQAPGKEREWVAAIYSYGMETEYADSVKGRFTISRDNAKNTVYLQMNSLKPEDTAVYYCNVKDGGHAAWWYDYWGQGTQVTVSA ; retrieve measured Kd.
~366 nM

Param item = GroEL2 sybody number 2 (VHH, not shown: Myc, C-terminal, kept; His6, C-terminal, kept) VHH: QVQLVESGGGLVQAGGSLRLSCAASGFPVSSSTMTWYRQAPGKEREWVAAIDSVGNETYYADSVKGRFTISRDNAKNTVYLQMNSLKPEDTAVYYCAVFVGSYYGQGTQVTVSA ; retrieve measured Kd.
~157 nM
